Listing of recorded koff by entry.
Molecular target: T1, human DLL3 (ACRO, DLL3-H52H4) (human, UniProt Q9NYJ7 27-492)
T1 construct: Bought
T1 sequence: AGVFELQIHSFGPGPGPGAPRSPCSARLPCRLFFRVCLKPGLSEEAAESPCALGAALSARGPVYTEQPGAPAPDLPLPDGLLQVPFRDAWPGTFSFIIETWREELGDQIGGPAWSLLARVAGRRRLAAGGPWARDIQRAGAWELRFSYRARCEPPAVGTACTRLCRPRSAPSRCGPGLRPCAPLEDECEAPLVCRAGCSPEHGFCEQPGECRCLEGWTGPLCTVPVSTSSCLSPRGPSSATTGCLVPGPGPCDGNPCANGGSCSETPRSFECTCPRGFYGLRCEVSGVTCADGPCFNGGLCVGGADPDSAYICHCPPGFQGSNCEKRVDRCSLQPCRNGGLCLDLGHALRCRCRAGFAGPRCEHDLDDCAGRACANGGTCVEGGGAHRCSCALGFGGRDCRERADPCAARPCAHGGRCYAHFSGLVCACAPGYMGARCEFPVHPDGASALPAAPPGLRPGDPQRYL
Test: SPR Biacore 8K, Ab captured on Protein A
Source text: Test antibodies were affinity-captured with a Protein A biosensor chip (Cat. #29127556, Cytiva) for 18 seconds, and then the antigens human DLL3 (ACRO, DLL3-H52H4), cynomolgus monkey DLL3 (KACTUS, DLL-RM103), mouse DLL3 (KACTUS, DLL-MM103), human CD3D&3E (ACRO, CDD-H52W1), and monkey CD3D&3E (ACRO, CDD-C52W4) were allowed to flow through the surface of the chip for 180 seconds, followed by 600 seconds of dissociation. […]
Lab book: enter the figure in s⁻¹, no units written.

hu30L1H11 (antibody, human IgG1, kappa, V domains shown) VH: EVRLVQFGAVVKKPGASVKVSCKASGYTFTDYYMNWVRQAPGQSLEWMGIINPYTGDTSYNQKFRGRVTLTVDKSSSTAYMELSSLTSEDTAVYYCARYHYGPHLEGYFDVWGQGTTVTVSS VL: DIVMTQSPDSLAVSLGERATINCKASENVGYVSWYQQKPGQPPKLLIYGASNRYTGVPDRFSGSGSGTDFTLTISSLQAEDVAVYYCGQSYSYPLTFGQGTKLEIKR | 0.00117
hu30L1H1 (antibody, human IgG1, kappa, V domains shown) VH: EVQLVQSGAEVKKPGASVKVSCKASGYTFTDYYMNWVRQAPGQSLEWMGIINPYNGDTSYNQKFRGRVTITVDKSASTAYMELSSLRSEDTAVYYCARYHYGPHLEGYFDVWGQGTTVTVSS VL: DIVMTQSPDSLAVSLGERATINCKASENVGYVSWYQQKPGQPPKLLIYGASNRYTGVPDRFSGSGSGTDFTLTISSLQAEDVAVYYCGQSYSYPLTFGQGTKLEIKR | 0.000787
hu30L1H3 (antibody, human IgG1, kappa, V domains shown) VH: EVRLVQSGAEVKKPGASVKVSCKASGYTFTDYYMNWVRQAPGQSLEWMGIINPYQGDTSYNQKFRGRVTLTVDKSASTAYMELSSLRSEDTAVYYCARYHYGPHLEGYFDVWGQGTTVTVSS VL: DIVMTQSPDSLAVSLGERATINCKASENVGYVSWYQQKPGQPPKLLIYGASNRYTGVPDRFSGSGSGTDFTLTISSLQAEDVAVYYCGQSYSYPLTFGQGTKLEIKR | 0.00185
hu30L5H5 (antibody, human IgG1, kappa, V domains shown) VH: EVRLVQSGAEVKKPGASVKVSCKASGYTFTDYYMNWVRQAPGQSLEWMGIINPYTGDTSYNQKFRGRVTLTVDKSASTAYMELSSLRSEDTAVYYCARYHYGPHLEGYFDVWGQGTTVTVSS VL: DIQMTQSPSSLSASVGDRVTITCKASENVGYVSWYQQKPGKSPKLLIYGASNRYTGVPDRFSGSGSGTDFTLTISSLQPEDFATYYCGQSYSYPLTFGSGTKLEIKR | 0.000882

**Query** # query: koff of entry hu30L4H11 (antibody, human IgG1, kappa, V domains shown) VH: EVRLVQFGAVVKKPGASVKVSCKASGYTFTDYYMNWVRQAPGQSLEWMGIINPYTGDTSYNQKFRGRVTLTVDKSSSTAYMELSSLTSEDTAVYYCARYHYGPHLEGYFDVWGQGTTVTVSS VL: DIQMTQSPSSLSASVGDRVTITCKASENVGYVSWYQQKPGKAPKLLIYGASNRYTGVPSRFSGSGSGTDFTLTISSLQPEDFATYYCGQSYSYPLTFGQGTKLEIKR
**Result** 0.00113
